Reported pIC50 values for the following molecules.
System: H3K27 methylation in G401 cell
Experiment summary: ELISA (H3K27 methylation) assay in G401 cells
Assay type: cell-based, human
Particulars: Homo sapiens, G-401, H3K27 methylation ELISA, read-out: (c) IC50 ELISA Qualified
Note on pIC50: it is the negative log10 of concentration, concentration in mol/L.

smiles=COc1cccc(F)c1CNc1ccc(-c2cnc(OC(C)C)nc2C)c2nncn12 target_of_assay="H3K27 methylation in G401 cell" reading=8.14
smiles=COc1ccc(F)c(F)c1CNc1ccc(-c2ccncc2)c2nncn12 target_of_assay="H3K27 methylation in G401 cell" reading=6.46
smiles=COc1cccc(F)c1CNc1ccc(-c2cnn(C(C)C)c2C)c2nncn12 target_of_assay="H3K27 methylation in G401 cell" reading=7.52

Query string: Reported pIC50, molecule `COc1cc(F)cc(F)c1CNc1ccc(-c2cccnc2C(F)F)c2nncn12` : ____
Result string: 8.01

Query string: Reported pIC50, molecule `COc1cccc(F)c1CNc1ccc(-c2cc(C)ncc2C)c2nncn12` : ____
Result string: 7.55

Query string: Reported pIC50, molecule `COc1cccc(F)c1CNc1ccc(-c2ccc(C)nc2C(F)F)c2nncn12` : ____
Result string: 8.11

Query string: Reported pIC50, molecule `COc1cccc(F)c1CNc1ccc(-c2ccc(S(C)(=O)=O)nc2C(F)F)c2nncn12` : ____
Result string: 7.97

Query string: Reported pIC50, molecule `COc1cccc(F)c1CNc1ccc(-c2ccc(CCO)nc2)c2nncn12` : ____
Result string: 7.76

Query string: Reported pIC50, molecule `COc1ccc(F)c(CNc2ccc(-c3cccnc3C)c3nncn23)c1` : ____
Result string: 7.07

----------
Target of assay: EED (1-441)-His protein (Homo sapiens, UniProt O75530)
Construct: 30 nM EED (1-441)-His protein
Sequence (O75530 whole entry): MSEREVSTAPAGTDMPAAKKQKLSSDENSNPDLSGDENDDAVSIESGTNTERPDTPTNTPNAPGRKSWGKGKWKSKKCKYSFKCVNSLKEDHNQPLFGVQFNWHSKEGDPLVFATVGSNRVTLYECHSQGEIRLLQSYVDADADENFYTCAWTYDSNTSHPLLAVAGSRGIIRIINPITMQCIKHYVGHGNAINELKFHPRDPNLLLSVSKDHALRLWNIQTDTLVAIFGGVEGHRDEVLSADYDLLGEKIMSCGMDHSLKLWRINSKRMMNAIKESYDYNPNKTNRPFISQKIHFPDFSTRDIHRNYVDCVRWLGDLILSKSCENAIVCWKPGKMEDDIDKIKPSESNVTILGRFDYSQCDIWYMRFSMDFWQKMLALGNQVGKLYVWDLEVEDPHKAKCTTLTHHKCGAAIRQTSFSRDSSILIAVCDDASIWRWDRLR
Experiment summary: EED-H3K27Me3 peptide competition binding assay by AlphaScreen
Particulars: EED-H3K27Me3 peptide competition, AlphaScreen; read-out: (a) IC50 EED Alphascreen binding Qualified
Measure: pIC50
Note on pIC50: it is the negative log10 of concentration, concentration in mol/L.

compound="COc1cc(CNc2ccc(-c3cccnc3C)c3nncn23)c(F)cc1F [Example 285]" target_of_assay="EED (1-441)-His protein (Homo sapiens, UniProt O75530)" measure=pIC50 reading=6.75
compound="COc1cc(F)cc(F)c1CNc1ccc(-c2cnc(C)cc2C)c2nncn12 [Example 329]" target_of_assay="EED (1-441)-His protein (Homo sapiens, UniProt O75530)" measure=pIC50 reading=7.51
compound="COc1cccc(F)c1CNc1ccc(-c2ccc(CCO)nc2)c2nncn12 [Example 183]" target_of_assay="EED (1-441)-His protein (Homo sapiens, UniProt O75530)" measure=pIC50 reading=7.70
compound="COc1cccc(F)c1CNc1ccc(-c2ccnc(C)c2C)c2nncn12 [Example 287]" target_of_assay="EED (1-441)-His protein (Homo sapiens, UniProt O75530)" measure=pIC50 reading=8.00

Query string: Reported pIC50, compound CO/N=C(\C)c1ccc(-c2ccc(NCc3c(F)cccc3OC)n3cnnc23)cn1 [Example 214] : ____
Result string: 7.26

Query string: Reported pIC50, compound COc1cc(F)cc(F)c1CNc1ccc(-c2cccnc2)c2nncn12 [Example 220] : ____
Result string: 7.34

Query string: Reported pIC50, compound COc1cccc(F)c1CNc1ccc(-c2ccc(C(=O)N(C)C)cc2)c2nncn12 [Example 206] : ____
Result string: 7.62

Query string: Reported pIC50, compound COc1cccc(F)c1CNc1ccc(-c2cncc(C3=NC(C)(C)CO3)c2)c2nncn12 [Example 199] : ____
Result string: 7.63

Query string: Reported pIC50, compound COc1cccc(F)c1CNc1ccc(-c2ccc(Cl)cc2Cl)c2nncn12 [Example 224] : ____
Result string: 6.86

Query string: Reported pIC50, compound COc1cccc(F)c1CNc1ccc(-c2cc(F)ncc2C)c2nncn12 [Example 279] : ____
Result string: 7.80

Query string: Reported pIC50, compound COCc1cncc(-c2ccc(NCc3c(F)cccc3OC)n3cnnc23)c1 [Example 203] : ____
Result string: 7.27

Query string: Reported pIC50, compound COc1cccc(F)c1CNc1ccc(-c2ccncc2C)c2nncn12 [Example 230] : ____
Result string: 7.89

Query string: Reported pIC50, compound COc1ccccc1CNc1ccc(-c2ccc(N3CCN(C)CC3C)nc2)c2nncn12 (stereo not drawn) [Example 180] : ____
Result string: 7.25

Query string: Reported pIC50, compound COc1cccc(F)c1CNc1ccc(-c2cnn(C)c2C)c2nncn12 [Example 188] : ____
Result string: 7.26

Query string: Reported pIC50, compound COc1cc(C)c(-c2ccc(NCc3c(F)cccc3OC)n3cnnc23)cn1 [Example 308] : ____
Result string: 7.73

Query string: Reported pIC50, compound COc1cccc(F)c1CNc1ccc(-c2c(C)nn(C3CC3)c2C)c2nncn12 [Example 275] : ____
Result string: 7.63

Query string: Reported pIC50, compound COc1cccc(F)c1CNc1ccc(-c2cnc(OC(C)C)nc2C)c2nncn12 [Example 332] : ____
Result string: 8.09

Query string: Reported pIC50, compound COc1cccc(F)c1CNc1ccc(-c2cnc(F)cc2C)c2nncn12 [Example 248] : ____
Result string: 7.78
